Recorded Percentage intact, CWE 2h by entry
Assay: Stability in chronic wound extracts (CWE), capillary zone electrophoresis
Assay type: in vitro ADME, human
Conditions: 1 mg/ml in PBS mixed 1:1 with CWE (1 mg/ml protein, pool of 5 donors) in PBS, 37°C, 2 h; CZE, UV 200 nm, ratio to imidazole, 0 h = 100%; experiment 1 of 3
Where no end group is shown, it is not given here.
Write the value in % as a bare number.

Look over these answered cases.
Q: What value of measured Percentage intact, CWE 2h is listed for SHREFPFYGDYGS [mad-Hst1] ?
A: 91.7

Q: What value of measured Percentage intact, CWE 2h is listed for DSHEKRHHGYRRKFHEKHHSHREFPFYGDYGSNYLYDN [Hst1] ?
A: 83.2738

Q: What value of measured Percentage intact, CWE 2h is listed for RKFHEKHHSHREFPFYGDYGSNYLYDN [Hst2] ?
A: 96.21

Okay, now this substance:
Q: What value of measured Percentage intact, CWE 2h is listed for cyclo(DNLPETGGDSHEKRHHGYRRKFHEKHHSHREFPFYGDYGSNYLY) [cHst1] ?
A: 94.125
